# method-notes: Components of the Cytosolic LPS Sensing Pathway: Gene Identification via Genome-wide siRNA Screen;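 note: robust z of the log signal after scaling to non-targeting control siRNA wells of the plate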
# conditions-used: RAW264.7 macrophages, IL-1a HTRF, actives lie on both sides, screened at 100 nM (by protocol), cells primed 5 h with Pam3CSK4 first
The campaign covered roughly 53,000 sequences. About 3,700 (7%) were called active. The sample as a whole holds a higher share of actives than the screen did.
Can you tell me z-score for the items I'm about to list?
Lab note: jot the number down without any unit.

IN: Param item = GGUGUCUUUCUUCACUCUUTT against Olfr862 ; retrieve measured z-score.
OUT: 0.225

IN: Param item = GGAUUUUCCAGGCAUGAGGTT against Ehd3 ; retrieve measured z-score.
OUT: -2.24

IN: Param item = GCAUAAGCCACACCCUCUGTT against Cops7a ; retrieve measured z-score.
OUT: 1.03

IN: Param item = GGUUUUGUGGGAAGAGUCATT against Ccdc163 ; retrieve measured z-score.
OUT: -2.99

IN: Param item = GGCUGUGGUGCUCAAUAAGTT against Clstn2 ; retrieve measured z-score.
OUT: -1.29
